Ref: patent EP4389746A2

- assayed-target: human P2X3 receptor (Homo sapiens)
- Sequence (P56373 whole entry): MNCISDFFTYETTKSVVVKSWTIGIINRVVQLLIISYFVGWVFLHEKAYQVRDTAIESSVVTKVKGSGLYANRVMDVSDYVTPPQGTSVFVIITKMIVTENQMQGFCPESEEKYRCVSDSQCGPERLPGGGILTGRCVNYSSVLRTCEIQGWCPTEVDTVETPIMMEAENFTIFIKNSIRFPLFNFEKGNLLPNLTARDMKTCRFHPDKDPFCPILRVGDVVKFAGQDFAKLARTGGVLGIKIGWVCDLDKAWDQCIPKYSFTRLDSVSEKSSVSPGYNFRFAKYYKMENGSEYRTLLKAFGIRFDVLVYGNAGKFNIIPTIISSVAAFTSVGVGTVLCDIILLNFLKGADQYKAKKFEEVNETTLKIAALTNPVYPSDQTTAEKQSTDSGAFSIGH
- test-description: Calcium luminescence measurement: human P2X3 receptor activity inhibition (CHO-K1 cells, photoprotein readout, FLEXSTATION)
- condition-set: CHO-K1 cells co-expressing human P2X3 and Ca2+ sensitive photoprotein; agonist α,β-Met-ATP; read-out: h-P2X3 IC50
assay-readout: IC50 (nM)
Express it in nM; write the number only.

Lab note: measured IC50 of "COc1ccc(Cn2c(=O)n3c(C(C)(C)C)nnc3c3ncc(N4CCN(C(C)=O)CC4)cc32)cc1" was 136

Lab note: measured IC50 of CC(C)C1CN2C(=O)N(Cc3ccc(Cl)cn3)c3cc(N4CCOCC4)cnc3C2=N1 (stereo not shown) was 865

Lab note: measured IC50 of COc1cc(CN2C(=O)N3CC(C(C)(C)C)N=C3c3ncc(N4CCOCC4)cc32)cc(OC)c1 (stereo not shown) was 27.3

Lab note: measured IC50 of "COc1ccc(Cn2c(=O)n3c(C(C)(C)C)nnc3c3ncc(N4CCC(N)CC4)cc32)cc1" was 491

Lab note: measured IC50 of "CC(C)(C)c1nnc2c3ncc(N4CCOCC4)cc3n(Cc3ccc(Cl)cc3)c(=O)n12" was 64.3

Lab note: measured IC50 of "CC(C)(C)Cc1nnc2c3nnc(N4CCOCC4)cc3n(Cc3ccc(Cl)cc3)c(=O)n12" was 19.5

Lab note: measured IC50 of "CN(C)c1nnc2c3nnc(N4CCOCC4)cc3n(Cc3ccc(Cl)cc3)c(=O)n12" was 98.6

Lab note: measured IC50 of CC(C)[C@@H]1CN2C(=O)N(Cc3ccc(Cl)cc3)c3cc(N4CCOCC4)cnc3C2=N1 (single isomer, unassigned) was 113

Lab note: measured IC50 of "COc1ccc(Cn2c(=O)n3c(C(C)(C)C)nnc3c3ncc(N4CCCCC4)cc32)cc1" was 50.6

Lab note: measured IC50 of "COC(C)(C)c1nnc2c3nnc(N4CCN(C(C)=O)CC4)cc3n(Cc3ccc(Cl)cc3)c(=O)n12" was 242

Lab note: measured IC50 of "CC(C)c1nnc2c3ncc(N4CCC(=O)CC4)cc3n(Cc3ccc(Cl)cc3)c(=O)n12" was 1260

Lab note: measured IC50 of CC(C)C1C(=O)N=C2c3ncc(N4CCC(O)CC4)cc3N(Cc3ccc(Cl)cc3)C(=O)N21 (stereo not shown) was 115

Lab note: measured IC50 of COc1ccc(CN2C(=O)N3C(=NC(=O)C3C(C)(C)C)c3ncc(N4CCOCC4)cc32)cc1 (stereo not shown) was 114

Lab note: measured IC50 of CC(C)C1CN2C(=O)N(Cc3ccc(Cl)cc3)c3cc(NC(CO)CO)cnc3C2=N1 (stereo not shown) was 11800

Lab note: measured IC50 of CC(C)C1CN2C(=O)N(Cc3ccc(Cl)cc3)c3cc(N4CCOCC4)cnc3C2=N1 (racemic) was 167

Lab note: measured IC50 of COC(C)(C)C1CN2C(=O)N(Cc3ccc(Cl)cc3)c3cc(N4CCOCC4)cnc3C2=N1 (stereo not shown) was 111
